These data points were gathered from the supplement of paper PMC11061612.

tested on: REH (B-Lymphoblastic Leukemia); experiment: combination Emax (second highest fraction inhibited in the dose matrix, 72 h); higher = more inhibition; extreme values may be limits of the assay
OBSERVABLE: combination Emax
# respond with the number and nothing more

Known results for molecules:
molecule="Cc1nc(Nc2ncc(C(=O)Nc3c(C)cccc3Cl)s2)cc(N2CCN(CCO)CC2)n1 [Dasatinib] + CC(=O)Nc1cccc(-n2c(=O)n(C3CC3)c(=O)c3c(Nc4ccc(I)cc4F)n(C)c(=O)c(C)c32)c1 [Trametinib] (first compound max 2 µM, 7x7, partner max 1 µM)" reported_result=0.089
molecule="Cc1c2c(nn1C)CSCc1cc(n(C)n1)CSc1cc(c3ccccc3c1)OCCCc1c(C(=O)O)n(C)c3c-2c(Cl)ccc13 [AZD5991] + Cn1cnc2c(F)c(Nc3ccc(Br)cc3Cl)c(C(=O)NOCCO)cc21 [Selumetinib] (first compound max 1 µM, 7x7, partner max 3 µM)" reported_result=0.732

# next molecule below
Given the entry Cc1c2c(nn1C)CSCc1cc(n(C)n1)CSc1cc(c3ccccc3c1)OCCCc1c(C(=O)O)n(C)c3c-2c(Cl)ccc13 [AZD5991] + C1CN(CCC1(C(=O)N[C@@H](CCO)C2=CC=C(C=C2)Cl)N)C3=NC=NC4=C3C=CN4 [Capivasertib] (first compound max 1 µM, 7x7, partner max 3 µM) , report its measured combination Emax. 0.849

====

test system: HCT-15 (Colorectal Carcinoma); experiment: combination Emax (second highest fraction inhibited in the dose matrix, 72 h); higher = more inhibition; extreme values may be limits of the assay
Recorded combination Emax, one value per entry.
# respond with the number and nothing more

compound="CN(C)CCCOc1ccc(-c2ccc3ncc4c(c3c2)n(C2CCOCC2)c(=O)n4C)cn1 [AZD0156] + CCN(CCO)CCCOc1ccc2c(Nc3cc(CC(=O)Nc4cccc(F)c4)[nH]n3)ncnc2c1 [AZD2811] (first compound max 1 µM, 7x7, partner max 1 µM)" reported_result=0.317

# next compound below
Given the entry CC1(C)CCC(CN2CCN(c3ccc(C(=O)NS(=O)(=O)c4ccc(NCC5CCOCC5)c([N+](=O)[O-])c4)c(Oc4cnc5[nH]ccc5c4)c3)CC2)=C(c2ccc(Cl)cc2)C1 [Venetoclax] + C[C@@H](Nc1cc(F)cc(F)c1)c1cc(C(=O)N(C)C)cc2c(=O)cc(N3CCOCC3)oc12 [AZD8186] (first compound max 1 µM, 7x7, partner max 3 µM) , report its measured combination Emax. 0.138

====

system: 23132-87 (Gastric Carcinoma); experiment: Bliss excess, mean over the matrix (fraction); higher = more synergy;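 note: after 72 h of two-drug dosing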
Recorded Bliss excess, one value per entry.

Known results for molecules:
molecule="C=CCn1c(=O)c2cnc(Nc3ccc(N4CCN(C)CC4)cc3)nc2n1-c1cccc(C(C)(C)O)n1 [AZD1775] + C[C@@H]1COCCN1C2=NC(=NC(=C2)C3(CC3)[S@](=N)(=O)C)C4=C5C=CNC5=NC=C4 [AZD6738] (first compound max 1 µM, partner max 10 µM)" reported_result=0.083
molecule="CC1(C)CCC(CN2CCN(c3ccc(C(=O)NS(=O)(=O)c4ccc(NCC5CCOCC5)c([N+](=O)[O-])c4)c(Oc4cnc5[nH]ccc5c4)c3)CC2)=C(c2ccc(Cl)cc2)C1 [Venetoclax] + Cn1cnc2c(F)c(Nc3ccc(Br)cc3Cl)c(C(=O)NOCCO)cc21 [Selumetinib] (first compound max 1 µM, 7x7, partner max 3 µM)" reported_result=-0.0507
molecule="Cc1c2c(nn1C)CSCc1cc(n(C)n1)CSc1cc(c3ccccc3c1)OCCCc1c(C(=O)O)n(C)c3c-2c(Cl)ccc13 [AZD5991] + CC1(C)CCC(CN2CCN(c3ccc(C(=O)NS(=O)(=O)c4ccc(NCC5CCOCC5)c([N+](=O)[O-])c4)c(Oc4cnc5[nH]ccc5c4)c3)CC2)=C(c2ccc(Cl)cc2)C1 [Venetoclax] (first compound max 1 µM, 7x7, partner max 1 µM)" reported_result=0.0019
molecule="CCN(CCO)CCCOc1ccc2c(Nc3cc(CC(=O)Nc4cccc(F)c4)[nH]n3)ncnc2c1 [AZD2811] + C[C@@H]1COCCN1C2=NC(=NC(=C2)C3(CC3)[S@](=N)(=O)C)C4=C5C=CNC5=NC=C4 [AZD6738] (first compound max 1 µM, 7x7, partner max 10 µM)" reported_result=-0.0087
molecule="COc1nnc2ccc(N3CCC(c4ccc(OCCN5CCN(C)C(=O)[C@H]5C)cc4)CC3)nn12 [AZD5153] + C=CCn1c(=O)c2cnc(Nc3ccc(N4CCN(C)CC4)cc3)nc2n1-c1cccc(C(C)(C)O)n1 [AZD1775] (first compound max 1 µM, partner max 1 µM)" reported_result=0.0309
molecule="NC1(C(=O)N[C@@H](CCO)c2ccc(Cl)cc2)CCN(c2ncnc3[nH]ccc23)CC1 [Capivasertib] + CCN(CCO)CCCOc1ccc2c(Nc3cc(CC(=O)Nc4cccc(F)c4)[nH]n3)ncnc2c1 [AZD2811] (first compound max 10 µM, 7x7, partner max 1 µM)" reported_result=0.008

Given the entry CN(C)CCCOc1ccc(-c2ccc3ncc4c(c3c2)n(C2CCOCC2)c(=O)n4C)cn1 [AZD0156] + C[C@@H]1COCCN1C2=NC(=NC(=C2)C3(CC3)[S@](=N)(=O)C)C4=C5C=CNC5=NC=C4 [AZD6738] (first compound max 1 µM, 7x7, partner max 10 µM) , report its measured Bliss excess. 0.0549

Would you mind doing NC1(C(=O)N[C@@H](CCO)c2ccc(Cl)cc2)CCN(c2ncnc3[nH]ccc23)CC1 [Capivasertib] + C[C@@H]1COCCN1C2=NC(=NC(=C2)C3(CC3)[S@](=N)(=O)C)C4=C5C=CNC5=NC=C4 [AZD6738] (first compound max 10 µM, 7x7, partner max 10 µM) as well? 0.0024

Would you mind doing Cc1c2c(nn1C)CSCc1cc(n(C)n1)CSc1cc(c3ccccc3c1)OCCCc1c(C(=O)O)n(C)c3c-2c(Cl)ccc13 [AZD5991] + C[C@@H]1COCCN1C2=NC(=NC(=C2)C3(CC3)[S@](=N)(=O)C)C4=C5C=CNC5=NC=C4 [AZD6738] (first compound max 1 µM, 7x7, partner max 10 µM) as well? -0.009

Would you mind doing C=CCn1c(=O)c2cnc(Nc3ccc(N4CCN(C)CC4)cc3)nc2n1-c1cccc(C(C)(C)O)n1 [AZD1775] + O=C(c1cc(Cc2n[nH]c(=O)c3ccccc23)ccc1F)N1CCN(C(=O)C2CC2)CC1 [Olaparib] (first compound max 1 µM, partner max 10 µM) as well? -0.0282

Would you mind doing C=CCn1c(=O)c2cnc(Nc3ccc(N4CCN(C)CC4)cc3)nc2n1-c1cccc(C(C)(C)O)n1 [AZD1775] + C1CN(CCC1(C(=O)N[C@@H](CCO)C2=CC=C(C=C2)Cl)N)C3=NC=NC4=C3C=CN4 [Capivasertib] (first compound max 3 µM, partner max 3 µM) as well? -0.0207

Would you mind doing Cc1cc2ncnn2cc1Nc1ncc2c(n1)n(C1CCOCC1)c(=O)n2C [AZD7648] + C=CCn1c(=O)c2cnc(Nc3ccc(N4CCN(C)CC4)cc3)nc2n1-c1cccc(C(C)(C)O)n1 [AZD1775] (first compound max 10 µM, partner max 1 µM) as well? -0.0401

Would you mind doing CC1(C)CCC(CN2CCN(c3ccc(C(=O)NS(=O)(=O)c4ccc(NCC5CCOCC5)c([N+](=O)[O-])c4)c(Oc4cnc5[nH]ccc5c4)c3)CC2)=C(c2ccc(Cl)cc2)C1 [Venetoclax] + C[C@@H](Nc1cc(F)cc(F)c1)c1cc(C(=O)N(C)C)cc2c(=O)cc(N3CCOCC3)oc12 [AZD8186] (first compound max 1 µM, 7x7, partner max 3 µM) as well? -0.036
